- tested system: T1, IL-1β (UniProt P01584 117-269)
- T1 construct: Antigen immobilised on the Biacore chip
- protocol notes: Biacore, periplasmic extract
quantity: fold difference in affinity vs original
I'd appreciate it if you included the unit after the number.

Consider the following illustrative entries.
XPA23 light chain H49K (Fab, V domains shown) VH: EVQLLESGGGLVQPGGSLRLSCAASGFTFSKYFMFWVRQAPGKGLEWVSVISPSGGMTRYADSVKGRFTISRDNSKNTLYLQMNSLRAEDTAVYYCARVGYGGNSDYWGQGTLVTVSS VL: DIQMTQSPSSVSASVGDRLTIICRASQDINRWLAWYQQTPGNAPKLLIKSATSLQSGVPSRFSGSGSGTDFTLTINSLQPEDFATYYCQQADSFPLTFGGGTKVEIK ... 0.1 fold
XPA23 light chain Q27F (Fab, V domains shown) VH: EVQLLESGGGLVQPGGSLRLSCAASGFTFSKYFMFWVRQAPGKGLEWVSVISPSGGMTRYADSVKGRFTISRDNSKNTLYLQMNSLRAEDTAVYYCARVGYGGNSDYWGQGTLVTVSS VL: DIQMTQSPSSVSASVGDRLTIICRASFDINRWLAWYQQTPGNAPKLLIHSATSLQSGVPSRFSGSGSGTDFTLTINSLQPEDFATYYCQQADSFPLTFGGGTKVEIK ... 2.96 fold

Continue with the binder presented below.
Note fold difference in affinity vs original for the binder shown: XPA23 light chain N30E (Fab, V domains shown) VH: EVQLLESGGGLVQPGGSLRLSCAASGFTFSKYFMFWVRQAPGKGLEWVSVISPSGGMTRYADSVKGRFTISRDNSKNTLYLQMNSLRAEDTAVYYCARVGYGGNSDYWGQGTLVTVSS VL: DIQMTQSPSSVSASVGDRLTIICRASQDIERWLAWYQQTPGNAPKLLIHSATSLQSGVPSRFSGSGSGTDFTLTINSLQPEDFATYYCQQADSFPLTFGGGTKVEIK
0.64 fold
